Ref: ChEMBL document CHEMBL3864146

MEASUREMENT NOTES: Cytotoxicity against HEK cells assessed as cell viability at 3.5 ug/ml after 48 hrs by CellTiter-Glo assay relative to control
Assay type: toxicity, cell-based, HEK293
CONDITION SUMMARY: human, read-out: Activity
RECORDED METRIC: viability at 48 h, 3.5 ug/ml (%)

# SMILES NOTATION, RECORDED MEASUREMENT
rows = [
    ("CCCCCCCCCCCCOc1ccc2[nH]cc(CCN)c2c1.Cl", 13.4),
]

* * *

System: Escherichia coli
MEASUREMENT NOTES: Adjuvant activity assessed as potentiation of tetracycline-induced antibacterial activity against Escherichia coli BW25113 at 0.25 times MIC after 16 to 18 hrs by checkerboard assay (reference value: 2 ng/ml)
Type: functional

# SMILES NOTATION, UNIT LABEL, MIC
measured = [
    ("CCCCCCOc1ccc2[nH]cc(CCN)c2c1.Cl", "ng/mL", 2),
    ("CCCCCCCCCCCCOc1ccc2[nH]cc(CCN)c2c1.Cl", "ng/mL", 1),
    ("CCCCCCCCCCOc1ccc2[nH]cc(CCN)c2c1.Cl", "ng/mL", 1),
    ("CCCCCCCCCOc1cccc(CCN)c1", "ng/mL", 2),
    ("CCCCCCCCCOc1ccc2[nH]cc(CCN)c2c1.Cl", "ng/mL", 2),
]

* * *

MEASUREMENT NOTES: Cytotoxicity against HEK cells assessed as cell viability at 0.65 ug/ml after 24 hrs by CellTiter-Glo assay relative to control
Format: toxicity, cell-based, HEK293
CONDITION SUMMARY: human, read-out: Activity

# SMILES NOTATION, UNIT LABEL, viability at 24 h, 0.65 ug/ml
data = [
    ("CCCCCCCCCOc1cccc(CCN)c1", "%", 72.7),
]

* * *

The entries below come with measured Activity values attached.
Test system: Escherichia coli
MEASUREMENT NOTES: Induction of membrane permeabilization in Escherichia coli BW25113 at MIC after 15 mins by propidium iodide staining-based fluorescence microplate reader method relative to 50% ethanol
Format: functional

# SMILES NOTATION, MEASURED TARGET, Activity / %
rows = [
    ("CCCCCCCCCCCCCCOc1ccc2[nH]cc(CCN)c2c1.Cl", "Escherichia coli", 11),
    ("CCCCCCCCCCCCCCCOc1ccc2[nH]cc(CCN)c2c1.Cl", "Escherichia coli", 13),
    ("CCCCOc1ccc2[nH]cc(CCN)c2c1.Cl", "Escherichia coli", 3),
    ("CCCCCCCCCCCCOc1ccc2[nH]cc(CCN)c2c1.Cl", "Escherichia coli", 10),
    ("CCCCCCOc1ccc2[nH]cc(CCN)c2c1.Cl", "Escherichia coli", 34),
    ("CCCCCCCCCCOc1ccc2[nH]cc(CCN)c2c1.Cl", "Escherichia coli", 83),
    ("CCCCCCCCCOc1ccc2[nH]cc(CCN)c2c1.Cl", "Escherichia coli", 100),
]

* * *

MEASUREMENT NOTES: Cytotoxicity against HEK cells assessed as cell viability at 1.3 ug/ml after 48 hrs by CellTiter-Glo assay relative to control
Assay type: toxicity, cell-based, HEK293
CONDITION SUMMARY: human, read-out: Activity
RECORDED METRIC: viability at 48 h, 1.3 ug/ml

# SMILES NOTATION, RECORDED METRIC, RECORDED MEASUREMENT
records = [
    ("CCCCCCCCCOc1cccc(CCN)c1", "viability at 48 h, 1.3 ug/ml", "31%"),
]
